Tested on: EKVX NSCLC
Experiment: NCI tumour cell line growth inhibition, 48 h
readoutType: TGI

{"compound": "O=P(NC12CC3CC(CC(C3)C1)C2)(N1CC1)N1CC1", "recordedResult": "> 100 µM"}
{"compound": "Cc1ccc(Nc2n[nH]c(=S)s2)cc1", "recordedResult": "> 100 µM"}
{"compound": "CN1C(=O)N/C(=C\\c2ccc(S(=O)(=O)N/N=C\\C(O)C(O)C(O)CO)cc2)C1=O (stereo not drawn)", "recordedResult": "> 100 µM"}
{"compound": "CC(=O)c1cccc(NC(=O)C(=O)C(C2OC(=O)c3ccccc32)[N+](=O)[O-])c1 (stereo not drawn)", "recordedResult": "> 100 µM"}
{"compound": "NCCCCN(CCCN)C(=O)c1ccccc1", "recordedResult": "> 100 µM"}
{"compound": "CC1CCN(CCCCCOc2ccc3oc4cc(Cl)ccc4c(=O)c3c2)CC1", "recordedResult": "14.3 µM"}
{"compound": "CC(=O)O[C@H](C[C@H](C(C)C)N(C)C(=O)[C@@H](NC(=O)[C@H]1CCCCN1C)C(C)C)c1nc(C(=O)N[C@@H](Cc2ccccc2)C[C@H](C)C(=O)O)c(C(C)C)s1", "recordedResult": "> 33.3 µM"}
{"compound": "C=CCC(CC=O)(C(=O)OCC)C(=O)OCC", "recordedResult": "> 100 µM"}
{"compound": "C=CC(C)(O)/C=C/C=C(\\C)C(CC1OC1(C)C)OC(=O)/C(C)=C\\C (stereo not drawn)", "recordedResult": "> 100 µM"}
{"compound": "C/C(=C\\C1=C(Cl)C(=O)c2ccccc2C1=O)C(=O)O", "recordedResult": "37.2 µM"}
{"compound": "O=C(CN1CCN(c2ccc(Cl)cc2)CC1)N1CCN(c2nnc(-c3ccc(Cl)cc3)c(-c3ccc(Cl)cc3)n2)CC1", "recordedResult": "> 100 µM"}
{"compound": "CCOC(=O)C1=C(C)OC(=O)[C@@]2(OC)C=C(Cl)[C@@]12C", "recordedResult": "> 100 µM"}
{"compound": "CCC(=O)N1NC(=O)C(CC)(CC)C1=O", "recordedResult": "> 100 µM"}

* * *

Below, each entry is listed with its recorded TGI.
Tested on: SN12C renal
Assay: NCI tumour cell line growth inhibition, 48 h

{"compound": "CC1CCC(O)(C(C)(C(=O)O)c2ccccc2)CC1 (stereo not given)", "TGI": "> 100 µM"}
{"compound": "CCC(=O)N1NC(=O)C(CC)(CC)C1=O", "TGI": "> 100 µM"}
{"compound": "NNC(=S)N/N=C(/C(=O)Nc1cc(Cl)ccc1Cl)C1C(=O)Nc2ccccc2S1=O (stereo not given)", "TGI": "> 100 µM"}
{"compound": "CC(=O)O[C@]1(C)OC(=O)[C@@H](C)N1[N+](=O)[O-]", "TGI": "> 100 µM"}
{"compound": "N#Cc1ccc(N2Cc3ccccc3OC3=C2C(=O)c2c(O)ccc(O)c2C3=O)cc1", "TGI": "2.16 µM"}
{"compound": "CCC1(CCSC(=N)N)C(=O)NC(=O)NC1=O", "TGI": "> 100 µM"}
{"compound": "C/C1=C/C2=CC(C)C[C@@H]2C(=O)[C@]2(C)C(=O)CC(C)(C)[C@H]2CC1=O (stereo not given in full)", "TGI": "> 50 µM"}
{"compound": "C/C(=N\\Oc1cc(Cl)ncn1)c1ccccn1", "TGI": "> 100 µM"}
{"compound": "Cc1ccc(/C(=C\\C(=O)C(=O)NC23CC4CC(CC(C4)C2)C3)Sc2ccccc2)cc1", "TGI": "> 10 µM"}
{"compound": "C1C[S][Ge]2([S]CCO1)[S]CCOCC[S]2", "TGI": "> 100 µM"}
{"compound": "COc1cc(N/N=C/C#N)cc(OC)c1OC", "TGI": "> 10 µM"}
{"compound": "COC(=O)[C@]12CC[C@@H](C)[C@H](C)[C@@H]1C1=CC[C@@H]3[C@@]4(C)C(C=O)=C[C@@](C)(COC(=O)c5ccco5)[C@@H]4C(=O)C[C@@]3(C)[C@]1(C)CC2", "TGI": "> 100 µM"}
{"compound": "CCCCCCCCOC(CO)CO", "TGI": "> 100 µM"}
{"compound": "COc1ccc(N=Nc2c(-c3ccccc3)nn(C(=O)CC(=O)Nc3cccc(Cl)c3)c2-c2ccccc2)cc1", "TGI": "> 100 µM"}
{"compound": "CN(C)c1ncnc2c1nnn2C1OC(CO)C(O)C1O (stereo not given)", "TGI": "> 100 µM"}
{"compound": "C[C@@H]1CC[C@@H]2[C@@H]1[C@H](OC(=O)/C=C/c1ccccc1)[C@]1(C3CCCCC3)C[C@@H](NC(=O)CO)[C@@]2(C)O1", "TGI": "24.2 µM"}
{"compound": "C=C1CC[C@@H](Br)C(C)(C)[C@]12CCC(C)(O)C(Cl)C2 (stereo not given in full)", "TGI": "30 µM"}
{"compound": "CCn1c(-c2ccc(F)cc2)nc2c1C(=O)c1ccccc1C2=O", "TGI": "> 100 µM"}
{"compound": "Oc1ccc2oc3c(O)c4ccccc4cc3c2c1", "TGI": "8.32 µM"}
{"compound": "CO/N=C(/C(=O)N(C(=O)/C(=N/OC)c1csc(NC(c2ccccc2)(c2ccccc2)c2ccccc2)n1)n1cnn(CC(=O)OC(C)(C)C)c1=O)c1csc(NC(c2ccccc2)(c2ccccc2)c2ccccc2)n1", "TGI": "> 10 µM"}
